B1: VH:VL chains; a variant is named by its letters at X, in order (parent)
chain 1: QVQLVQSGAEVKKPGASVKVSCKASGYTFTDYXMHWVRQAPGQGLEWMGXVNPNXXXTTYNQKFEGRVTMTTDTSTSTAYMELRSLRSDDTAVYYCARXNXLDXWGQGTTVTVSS
chain 2: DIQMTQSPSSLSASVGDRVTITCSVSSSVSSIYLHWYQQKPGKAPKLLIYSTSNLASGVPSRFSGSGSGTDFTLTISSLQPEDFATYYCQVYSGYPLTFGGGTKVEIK

Variants of: B1
Assay: yeast display scFab, FACS + sequencing

{"mutation_key": "FRAGSSWD", "non-specific binding call": "binds"}
{"mutation_key": "YRGKGDGS", "non-specific binding call": "binds"}
{"mutation_key": "FTEGDSGY", "non-specific binding call": "no binding"}
{"mutation_key": "YEGTGAVF", "non-specific binding call": "no binding"}
{"mutation_key": "YRGRDASA", "non-specific binding call": "binds"}
{"mutation_key": "VTRGDVWV", "non-specific binding call": "no binding"}
{"mutation_key": "DATGGDGS", "non-specific binding call": "no binding"}
{"mutation_key": "YRARSSVV", "non-specific binding call": "binds"}
